The compounds listed here are annotated with their IC50.
System: OVCA433R (Ola-R)
Assay: Colony formation assay (crystal violet, 14 days), OVCA433R
Format: cell-based
Conditions: 336 h; OVCA433R (olaparib-resistant), 50% colony formation inhibition, day 14
Description: In this assay, wild-type BRCA ovarian cancer cell lines OVCAR-3, OVCAR-5, SKOV3, NCI/ADR-RES, A2780, A2780 CR (carboplatin-resistant-inducing cell line) and OVCA433R (olaparib-resistant cell line) and mutation type BRCA1 ovarian cancer cell line, SNU-251, were used. […] After washing with PBS and sufficiently drying at room temperature, the number of stained colonies was counted and recorded using a microscope and the naked eye. […]

compound	unitDescriptor	IC50
O=C(c1cc(Cc2n[nH]c(=O)c3ccccc23)ccc1F)N1CCN(C(=O)C2CC2)CC1	µM	53.7
N#Cc1ccc(N2CCN(Cc3ccc4c5c(c(=O)[nH]c4c3)CCCN5)CC2)nc1 [citrate of the compound of Formula I]	µM	11.3

###

biological target: P-gp (Homo sapiens); construct: endogenous in cells; host or cells: CaCO2 (Caco-2) cells, 21-day transwell monolayer; assay: Permeability study in CaCO2 cells, efflux ratio by P-gp; type: in vitro ADME; settings: human, Caco-2; 50 μM, CaCO2 cells
outcomeMeasure: Papp B→A at 180 min, 50 μM (×10⁻⁶ cm/s)

compound	measuredValue
N#Cc1ccc(N2CCN(Cc3ccc4c5c(c(=O)[nH]c4c3)CCCN5)CC2)nc1 [citrate of the compound of Formula I]	41.2

###

system: A2780 CR(Chemo R); assay: Colony formation assay (crystal violet, 14 days), A2780 CR; assay type: cell-based; details: Homo sapiens, 336 h; A2780 CR (carboplatin-resistant), 50% colony formation inhibition, day 14
The compounds listed here are annotated with their IC50.
outcomeMeasure: IC50 (nM)

compound	outcomeMeasure	measuredValue
N#Cc1ccc(N2CCN(Cc3ccc4c5c(c(=O)[nH]c4c3)CCCN5)CC2)nc1 [citrate of the compound of Formula I]	IC50	7.4
NC(=O)c1cccc2cn(-c3ccc([C@@H]4CCCNC4)cc3)nc12	IC50	307
O=C(c1cc(Cc2n[nH]c(=O)c3ccccc23)ccc1F)N1CCN(C(=O)C2CC2)CC1	IC50	541

###

target: P-gp (Homo sapiens, UniProt P08183); construct: endogenous in cells; host or cells: CaCO2 (Caco-2) cells, 21-day transwell monolayer; assay: Permeability study in CaCO2 cells, efflux ratio by P-gp; format: in vitro ADME; details: 10 μM, CaCO2 cells
Sequence (P08183 whole entry): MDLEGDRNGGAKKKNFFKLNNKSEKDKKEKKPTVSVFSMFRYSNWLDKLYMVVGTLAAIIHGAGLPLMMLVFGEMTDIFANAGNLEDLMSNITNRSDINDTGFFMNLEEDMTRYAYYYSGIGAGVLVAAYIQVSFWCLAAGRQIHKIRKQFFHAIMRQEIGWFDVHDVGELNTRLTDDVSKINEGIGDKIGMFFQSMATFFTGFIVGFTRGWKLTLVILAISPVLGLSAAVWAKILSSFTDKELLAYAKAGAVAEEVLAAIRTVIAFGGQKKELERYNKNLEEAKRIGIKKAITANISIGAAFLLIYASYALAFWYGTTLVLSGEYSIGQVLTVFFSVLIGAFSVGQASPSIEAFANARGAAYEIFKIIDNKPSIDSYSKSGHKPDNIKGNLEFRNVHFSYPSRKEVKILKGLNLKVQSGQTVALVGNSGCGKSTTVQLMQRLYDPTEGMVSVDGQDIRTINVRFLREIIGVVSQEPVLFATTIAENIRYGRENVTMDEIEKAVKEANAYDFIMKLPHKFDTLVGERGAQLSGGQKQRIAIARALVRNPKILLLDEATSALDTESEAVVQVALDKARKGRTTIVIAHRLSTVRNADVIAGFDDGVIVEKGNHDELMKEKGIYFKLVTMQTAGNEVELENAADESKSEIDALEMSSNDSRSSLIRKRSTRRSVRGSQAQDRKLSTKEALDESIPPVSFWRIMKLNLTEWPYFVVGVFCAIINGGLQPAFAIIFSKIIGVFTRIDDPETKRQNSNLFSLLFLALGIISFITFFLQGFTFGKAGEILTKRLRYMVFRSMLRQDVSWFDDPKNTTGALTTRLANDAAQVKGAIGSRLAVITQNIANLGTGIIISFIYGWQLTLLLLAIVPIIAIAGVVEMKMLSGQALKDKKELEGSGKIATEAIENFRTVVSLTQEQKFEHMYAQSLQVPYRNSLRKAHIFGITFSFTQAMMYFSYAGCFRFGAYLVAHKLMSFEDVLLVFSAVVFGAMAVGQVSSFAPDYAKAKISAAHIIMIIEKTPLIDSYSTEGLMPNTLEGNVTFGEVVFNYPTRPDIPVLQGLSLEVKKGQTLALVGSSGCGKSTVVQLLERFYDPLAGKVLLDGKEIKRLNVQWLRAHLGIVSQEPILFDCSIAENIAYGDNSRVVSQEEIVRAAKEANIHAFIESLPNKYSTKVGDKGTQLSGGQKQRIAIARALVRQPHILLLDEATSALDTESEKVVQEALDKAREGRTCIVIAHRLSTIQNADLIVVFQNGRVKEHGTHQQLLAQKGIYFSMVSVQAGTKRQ

molecule	Papp B→A [×10⁻⁶ cm/s]
O=C(c1cc(Cc2n[nH]c(=O)c3ccccc23)ccc1F)N1CCN(C(=O)C2CC2)CC1 [Olaparib, olaparib]	44.8
